system: 379773-124-R-J2-PDC spheroid viability; test: Anticancer human tumor 379773-124-R-J2-PDC patient-derived endometrial carcinoma cell line growth inhibition [POLQ]; details: second compound 0.1 µM; first compound 10 µM; spheroids with HUVEC and MSC; active = viability on the fitted dose curve at most 10% of control; inactive = the rest
Reply using exactly one outcome from 1.0 for active, 0.0 for inactive

# Molecule, Target under test, Qualitative label
rows = [
    ("COc1ccc([C@@H](O)c2cc(-c3ncnc4cc(N5CCOCC5)ccc34)c(F)cc2Cl)nn1 + Cc1cccc(N(C)C(=O)C2C(O)CCN2c2nc(C)cc(C(F)(F)F)c2C#N)c1", "379773-124-R-J2-PDC spheroid viability", 0.0),
]

In: Short answer needed: outcome of this test for CC1COCCN1c1cc(C2(O)CC3CCC(C2)O3)c2cnn(-c3ccn[nH]3)c2n1 (stereo not drawn) + Nc1ccc(C#CCN(C(=O)Cc2ncc(C(F)(F)F)cc2C(F)(F)F)c2ccc(F)cc2)nn1 ?
Out: 1.0

In: Also need COc1cc(C2c3cc4c(cc3C(OC3OC5COC(C)OC5C(O)C3O)C3COC(=O)C23)OCO4)cc(OC)c1O (stereo not drawn) + Cc1cccc(N(C)C(=O)C2C(O)CCN2c2nc(C)cc(C(F)(F)F)c2C#N)c1 , thanks.
Out: 1.0

----------
test system: 379773-124-R-J2-PDC spheroid viability; experiment: Anticancer human tumor 379773-124-R-J2-PDC cell line growth inhibition [POLQ]; details: second compound 10 µM; first compound 0.0316 µM; stronger effect = lower value; spheroids with HUVEC and MSC;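 note: spheroids exposed to drugs for seven days before readout; percent viability relative to DMSO vehicle control taken as 100%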
Catalogue of viability, T/C values
Numeric only. Scale: %

Here are 2 molecules together with their reported answers.
# Molecule, Reported metric, Unit descriptor, Reported measurement
rows = [
    ("COc1cc(C2c3cc4c(cc3C(OC3OC5COC(C)OC5C(O)C3O)C3COC(=O)C23)OCO4)cc(OC)c1O (stereo not drawn) + COC1C(OC(N)=O)C(O)C(Oc2ccc3c(O)c(NC(=O)c4ccc(O)c(CC=C(C)C)c4)c(=O)oc3c2C)OC1(C)C", "viability, T/C", "%", 85.2),
    ("C#Cc1c(F)ccc2cc(O)cc(-c3ncc4c(N5CC6CCC(C5)N6)nc(OCC56CCCN5CC(F)C6)nc4c3F)c12 (stereo not drawn) + Nc1ccc(C#CCN(C(=O)Cc2ncc(C(F)(F)F)cc2C(F)(F)F)c2ccc(F)cc2)nn1", "viability, T/C", "%", 88.9),
]

In: Find the recorded viability, T/C belonging to COc1ccc([C@@H](O)c2cc(-c3ncnc4cc(N5CCOCC5)ccc34)c(F)cc2Cl)nn1 + Cc1cccc(N(C)C(=O)C2C(O)CCN2c2nc(C)cc(C(F)(F)F)c2C#N)c1 and report it.
Out: 74.8

----------
Catalogue of viability, T/C values
system: 379773-124-R-J2-PDC spheroid viability; test: Anticancer human tumor 379773-124-R-J2-PDC cell line growth inhibition [POLQ]; settings: second compound 0.0316 µM; first compound 0.1 µM; stronger effect = lower value; spheroids with HUVEC and MSC;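 note: spheroids exposed to drugs for seven days before readout; percent viability relative to DMSO vehicle control taken as 100%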
Numeric only. Scale: %

# Molecule, Target under test, Reported measurement
data = [
    ("C#Cc1c(F)ccc2cc(O)cc(-c3ncc4c(N5CC6CCC(C5)N6)nc(OCC56CCCN5CC(F)C6)nc4c3F)c12 (stereo not given) + Cc1cccc(N(C)C(=O)C2C(O)CCN2c2nc(C)cc(C(F)(F)F)c2C#N)c1", "379773-124-R-J2-PDC spheroid viability", 89.3),
    ("CCc1cc2c(N3CCc4c(cc(Cn5ccnc5)cc4-c4cn(C)nc4C(F)(F)F)C3=O)ccnc2c(OC)n1 + Cc1cccc(N(C)C(=O)C2C(O)CCN2c2nc(C)cc(C(F)(F)F)c2C#N)c1", "379773-124-R-J2-PDC spheroid viability", 68.8),
    ("CNCc1ccc(-c2[nH]c3cc(F)cc4c3c2CCNC4=O)cc1 + Cc1cccc(N(C)C(=O)C2C(O)CCN2c2nc(C)cc(C(F)(F)F)c2C#N)c1", "379773-124-R-J2-PDC spheroid viability", 74.2),
    ("COc1ccc([C@@H](O)c2cc(-c3ncnc4cc(N5CCOCC5)ccc34)c(F)cc2Cl)nn1 + Cc1cccc(N(C)C(=O)C2C(O)CCN2c2nc(C)cc(C(F)(F)F)c2C#N)c1", "379773-124-R-J2-PDC spheroid viability", 83.6),
]

Let's switch to this molecule now.
In: Find the recorded viability, T/C belonging to CCc1c2c(nc3ccc(O)cc13)-c1cc3c(c(=O)n1C2)COC(=O)[C@]3(O)CC + Cc1cccc(N(C)C(=O)C2C(O)CCN2c2nc(C)cc(C(F)(F)F)c2C#N)c1 and report it.
Out: 2.98

----------
tested on: 379773-124-R-J2-PDC spheroid viability; assay: Anticancer human tumor 379773-124-R-J2-PDC cell line growth inhibition [POLQ]; settings: second compound 0.1 µM; first compound 10 µM; stronger effect = lower value; spheroids with HUVEC and MSC;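 note: spheroids exposed to drugs for seven days before readout; percent viability relative to DMSO vehicle control taken as 100%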
Reported metric: viability, T/C

Here are 2 compounds together with their reported answers.
# Compound, Reported metric, Reported measurement
rows = [
    ("COc1cc2cc(C(=O)CCC(=O)O)sc2cc1OC + Nc1ccc(C#CCN(C(=O)Cc2ncc(C(F)(F)F)cc2C(F)(F)F)c2ccc(F)cc2)nn1", "viability, T/C", "92.7%"),
    ("CCCS(=O)(=O)Nc1ccc(F)c(C(=O)c2c[nH]c3ncc(-c4ccc(Cl)cc4)cc23)c1F + COC1C(OC(N)=O)C(O)C(Oc2ccc3c(O)c(NC(=O)c4ccc(O)c(CC=C(C)C)c4)c(=O)oc3c2C)OC1(C)C", "viability, T/C", "55.4%"),
]

Let's switch to this compound now.
In: Find the recorded viability, T/C belonging to CC1COCCN1c1cc(C2(S(C)(=N)=O)CC2)nc(-c2ccnc3[nH]ccc23)n1 (stereo not drawn) + Cc1cccc(N(C)C(=O)C2C(O)CCN2c2nc(C)cc(C(F)(F)F)c2C#N)c1 and report it.
Out: 5.96%

----------
test system: 379773-124-R-J2-PDC spheroid viability; test: Anticancer human tumor 379773-124-R-J2-PDC cell line growth inhibition [POLQ]; details: second compound 0.1 µM; first compound 3.16 µM; stronger effect = lower value; spheroids with HUVEC and MSC;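 note: spheroids exposed to drugs for seven days before readout; percent viability relative to DMSO vehicle control taken as 100%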
Catalogue of viability, T/C values
Numeric only. Scale: %

Here are 10 compounds together with their reported answers.
# Compound, viability, T/C, %
data = [
    ("C=CC(=O)N1CCN(c2nc(=O)n(-c3c(C)ccnc3C(C)C)c3nc(-c4c(O)cccc4F)c(F)cc23)C(C)C1 (stereo not given) + COC1C(OC(N)=O)C(O)C(Oc2ccc3c(O)c(NC(=O)c4ccc(O)c(CC=C(C)C)c4)c(=O)oc3c2C)OC1(C)C", 87.9),
    ("CCCS(=O)(=O)Nc1ccc(F)c(C(=O)c2c[nH]c3ncc(-c4ccc(Cl)cc4)cc23)c1F + Nc1ccc(C#CCN(C(=O)Cc2ncc(C(F)(F)F)cc2C(F)(F)F)c2ccc(F)cc2)nn1", 81.4),
    ("C#Cc1c(F)ccc2cc(O)cc(-c3ncc4c(N5CC6CCC(C5)N6)nc(OCC56CCCN5CC(F)C6)nc4c3F)c12 (stereo not given) + Cc1cccc(N(C)C(=O)C2C(O)CCN2c2nc(C)cc(C(F)(F)F)c2C#N)c1", 84.8),
    ("Nc1ccn(C2OC(CO)C(O)C2(F)F)c(=O)n1 (stereo not given) + COC1C(OC(N)=O)C(O)C(Oc2ccc3c(O)c(NC(=O)c4ccc(O)c(CC=C(C)C)c4)c(=O)oc3c2C)OC1(C)C", 8.46),
    ("CCCS(=O)(=O)Nc1ccc(F)c(C(=O)c2c[nH]c3ncc(-c4ccc(Cl)cc4)cc23)c1F + Cc1cccc(N(C)C(=O)C2C(O)CCN2c2nc(C)cc(C(F)(F)F)c2C#N)c1", 86.6),
    ("O=C(c1cc(Cc2n[nH]c(=O)c3ccccc23)ccc1F)N1CCN(C(=O)C2CC2)CC1 + Nc1ccc(C#CCN(C(=O)Cc2ncc(C(F)(F)F)cc2C(F)(F)F)c2ccc(F)cc2)nn1", 91.1),
    ("COc1ccc([C@@H](O)c2cc(-c3ncnc4cc(N5CCOCC5)ccc34)c(F)cc2Cl)nn1 + Nc1ccc(C#CCN(C(=O)Cc2ncc(C(F)(F)F)cc2C(F)(F)F)c2ccc(F)cc2)nn1", 77),
    ("Nc1ccn(C2OC(CO)C(O)C2(F)F)c(=O)n1 (stereo not given) + Cc1cccc(N(C)C(=O)C2C(O)CCN2c2nc(C)cc(C(F)(F)F)c2C#N)c1", 9.14),
    ("C=CC(=O)N1CCN(c2nc(=O)n(-c3c(C)ccnc3C(C)C)c3nc(-c4c(O)cccc4F)c(F)cc23)C(C)C1 (stereo not given) + Nc1ccc(C#CCN(C(=O)Cc2ncc(C(F)(F)F)cc2C(F)(F)F)c2ccc(F)cc2)nn1", 92),
    ("CCc1cc2c(N3CCc4c(cc(Cn5ccnc5)cc4-c4cn(C)nc4C(F)(F)F)C3=O)ccnc2c(OC)n1 + COC1C(OC(N)=O)C(O)C(Oc2ccc3c(O)c(NC(=O)c4ccc(O)c(CC=C(C)C)c4)c(=O)oc3c2C)OC1(C)C", 52.3),
]

In: Find the recorded viability, T/C belonging to CCc1cc2c(N3CCc4c(cc(Cn5ccnc5)cc4-c4cn(C)nc4C(F)(F)F)C3=O)ccnc2c(OC)n1 + Cc1cccc(N(C)C(=O)C2C(O)CCN2c2nc(C)cc(C(F)(F)F)c2C#N)c1 and report it.
Out: 55.2

In: Also need Nc1ccn(C2OC(CO)C(O)C2(F)F)c(=O)n1 (stereo not given) + Nc1ccc(C#CCN(C(=O)Cc2ncc(C(F)(F)F)cc2C(F)(F)F)c2ccc(F)cc2)nn1 , thanks.
Out: 12.6

In: Also need COc1cc(C2c3cc4c(cc3C(OC3OC5COC(C)OC5C(O)C3O)C3COC(=O)C23)OCO4)cc(OC)c1O (stereo not given) + Nc1ccc(C#CCN(C(=O)Cc2ncc(C(F)(F)F)cc2C(F)(F)F)c2ccc(F)cc2)nn1 , thanks.
Out: 18.6

In: Also need O=C(Nc1ccc(O)c(NS(=O)(=O)c2ccc(F)cc2)c1)c1ccc(-c2ccccc2)cc1 + Cc1cccc(N(C)C(=O)C2C(O)CCN2c2nc(C)cc(C(F)(F)F)c2C#N)c1 , thanks.
Out: 86.4
